Assay: Plasma pharmacokinetics of bortezomib and docetaxel given in combination
Type: in vivo, patients
Conditions: human, plasma, intravenous, 1 mg, bortezomib 1.0 mg m^−2, day 1, patients with measurable plasma concentrations at 24 h post-dose (n=2); read-out: T½,z 24-h, mean (converted)
observation type: half-life (h)

[
  {
    "entry smiles": "CC(C)C[C@H](NC(=O)[C@H](Cc1ccccc1)NC(=O)c1cnccn1)B(O)O",
    "measured value": 15.1
  }
]

###

Test: Plasma pharmacokinetics of bortezomib and docetaxel given in combination
Type: in vivo, patients
Settings: human, plasma, intravenous, 1 mg, bortezomib 1.0 mg m^−2 (n=5), day 11; read-out: CL, mean (%CV) (converted)

[
  {
    "entry smiles": "CC(C)C[C@H](NC(=O)[C@H](Cc1ccccc1)NC(=O)c1cnccn1)B(O)O",
    "clearance (mL/min)": 225
  }
]

###

Experiment: Plasma pharmacokinetics of bortezomib and docetaxel given in combination
Format: in vivo, patients
Conditions: human, plasma, intravenous, 1.5 mg, bortezomib 1.5 mg m^−2 (n=8), day 1, with docetaxel; read-out: AUC0–t, mean (%CV)

[
  {
    "entry smiles": "CC(C)C[C@H](NC(=O)[C@H](Cc1ccccc1)NC(=O)c1cnccn1)B(O)O",
    "AUC(0-t) [µg·h/mL]": 0.069
  }
]

###

Assay: Plasma pharmacokinetics of bortezomib and docetaxel given in combination
Type: in vivo, patients
Conditions: human, plasma, intravenous; docetaxel 75 mg m^−2 (n=7), day 1, with bortezomib; read-out: Cmax, mean (%CV)

[
  {
    "molecule": "CC(=O)O[C@@]12CO[C@@H]1C[C@H](O)[C@@]1(C)C(=O)[C@H](O)C3=C(C)[C@@H](OC(=O)[C@H](O)[C@@H](NC(=O)OC(C)(C)C)c4ccccc4)C[C@@](O)([C@@H](OC(=O)c4ccccc4)[C@H]21)C3(C)C [Docetaxel]",
    "u": "ng/mL",
    "Cmax": 1620
  }
]

###

Experiment: Plasma pharmacokinetics of bortezomib and docetaxel given in combination
Assay type: in vivo, patients
Details: human, plasma, intravenous, 1 mg, bortezomib 1.0 mg m^−2 (n=5), day 11; read-out: Vz, mean (%CV)

[
  {
    "molecule": "CC(C)C[C@H](NC(=O)[C@H](Cc1ccccc1)NC(=O)c1cnccn1)B(O)O [Bortezomib]",
    "Vd (L)": 237
  }
]

###

Experiment: Plasma pharmacokinetics of bortezomib and docetaxel given in combination
Format: in vivo, patients
Conditions: human, plasma, intravenous, 1.5 mg, bortezomib 1.5 mg m^−2 (n=6), day 11; read-out: CL, mean (%CV) (converted)

[
  {
    "entry smiles": "CC(C)C[C@H](NC(=O)[C@H](Cc1ccccc1)NC(=O)c1cnccn1)B(O)O",
    "clearance / mL/min": 267
  }
]

###

Test: Plasma pharmacokinetics of bortezomib and docetaxel given in combination
Assay type: in vivo, patients
Settings: human, plasma, intravenous, 1 mg, bortezomib 1.0 mg m^−2 (n=5), day 11; read-out: AUC0–∞∞, mean (%CV)

[
  {
    "entry smiles": "CC(C)C[C@H](NC(=O)[C@H](Cc1ccccc1)NC(=O)c1cnccn1)B(O)O",
    "u": "ng·h/mL",
    "AUC(0-inf)": 133
  }
]

###

Test: Plasma pharmacokinetics of bortezomib and docetaxel given in combination
Assay type: in vivo, patients
Settings: human, plasma, intravenous, 75 mg, docetaxel 75 mg m^−2 (n=7), day 1, with bortezomib; read-out: Vz, mean (%CV)

[
  {
    "molecule": "CC(=O)O[C@@]12CO[C@@H]1C[C@H](O)[C@@]1(C)C(=O)[C@H](O)C3=C(C)[C@@H](OC(=O)[C@H](O)[C@@H](NC(=O)OC(C)(C)C)c4ccccc4)C[C@@](O)([C@@H](OC(=O)c4ccccc4)[C@H]21)C3(C)C [Docetaxel]",
    "Vd (L)": 920
  }
]
